- tested_target: Human Nav1.9 (Homo sapiens)
- Construct: expressed in transfected cells; host or cells: HEK-293 stably expressing human β1/β2
- Sequence (Q9UI33 whole entry): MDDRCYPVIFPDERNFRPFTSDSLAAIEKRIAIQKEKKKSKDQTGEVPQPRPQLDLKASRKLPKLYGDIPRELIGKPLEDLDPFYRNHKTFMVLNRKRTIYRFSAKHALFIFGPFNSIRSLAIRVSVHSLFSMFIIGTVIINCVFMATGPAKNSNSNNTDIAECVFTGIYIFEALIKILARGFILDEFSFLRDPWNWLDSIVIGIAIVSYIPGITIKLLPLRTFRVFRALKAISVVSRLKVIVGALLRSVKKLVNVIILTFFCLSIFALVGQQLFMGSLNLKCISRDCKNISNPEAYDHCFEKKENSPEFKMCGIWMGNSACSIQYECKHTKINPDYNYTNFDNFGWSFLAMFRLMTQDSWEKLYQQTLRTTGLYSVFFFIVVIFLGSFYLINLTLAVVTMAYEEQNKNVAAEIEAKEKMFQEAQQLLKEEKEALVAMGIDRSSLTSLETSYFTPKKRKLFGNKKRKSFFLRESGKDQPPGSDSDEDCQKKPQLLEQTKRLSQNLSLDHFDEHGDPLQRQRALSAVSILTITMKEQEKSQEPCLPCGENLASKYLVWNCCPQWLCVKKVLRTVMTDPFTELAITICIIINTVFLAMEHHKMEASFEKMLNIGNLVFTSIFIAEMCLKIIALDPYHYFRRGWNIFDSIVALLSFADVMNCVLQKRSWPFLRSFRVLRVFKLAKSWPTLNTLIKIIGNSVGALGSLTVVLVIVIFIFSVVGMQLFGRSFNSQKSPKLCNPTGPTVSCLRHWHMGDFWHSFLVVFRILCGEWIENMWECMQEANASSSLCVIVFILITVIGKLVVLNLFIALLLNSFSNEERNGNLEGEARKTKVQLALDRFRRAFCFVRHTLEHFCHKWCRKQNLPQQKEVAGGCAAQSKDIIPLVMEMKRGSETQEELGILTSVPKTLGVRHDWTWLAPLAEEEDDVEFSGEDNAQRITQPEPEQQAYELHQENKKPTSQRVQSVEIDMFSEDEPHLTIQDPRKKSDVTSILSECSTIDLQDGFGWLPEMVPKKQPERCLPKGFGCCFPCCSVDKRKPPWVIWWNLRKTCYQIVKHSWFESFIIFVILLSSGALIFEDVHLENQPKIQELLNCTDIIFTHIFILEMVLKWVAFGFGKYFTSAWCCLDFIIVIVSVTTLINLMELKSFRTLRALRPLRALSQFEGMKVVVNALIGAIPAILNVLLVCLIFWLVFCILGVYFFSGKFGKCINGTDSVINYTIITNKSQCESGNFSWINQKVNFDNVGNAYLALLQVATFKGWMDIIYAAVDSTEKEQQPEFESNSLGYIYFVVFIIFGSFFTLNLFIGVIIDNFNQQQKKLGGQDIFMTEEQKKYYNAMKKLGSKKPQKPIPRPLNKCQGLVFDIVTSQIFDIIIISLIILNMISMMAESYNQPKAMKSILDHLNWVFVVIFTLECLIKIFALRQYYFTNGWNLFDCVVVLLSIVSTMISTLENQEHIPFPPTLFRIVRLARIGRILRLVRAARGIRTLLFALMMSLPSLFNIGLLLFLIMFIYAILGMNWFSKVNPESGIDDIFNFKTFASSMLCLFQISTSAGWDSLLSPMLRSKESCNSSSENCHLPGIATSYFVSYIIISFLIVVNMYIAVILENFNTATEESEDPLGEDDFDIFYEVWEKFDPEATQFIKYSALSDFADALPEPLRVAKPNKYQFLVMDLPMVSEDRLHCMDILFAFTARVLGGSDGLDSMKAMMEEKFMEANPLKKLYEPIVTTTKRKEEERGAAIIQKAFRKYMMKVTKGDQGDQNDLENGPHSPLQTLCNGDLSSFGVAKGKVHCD
- Sequence (Q07699 19-218 partner): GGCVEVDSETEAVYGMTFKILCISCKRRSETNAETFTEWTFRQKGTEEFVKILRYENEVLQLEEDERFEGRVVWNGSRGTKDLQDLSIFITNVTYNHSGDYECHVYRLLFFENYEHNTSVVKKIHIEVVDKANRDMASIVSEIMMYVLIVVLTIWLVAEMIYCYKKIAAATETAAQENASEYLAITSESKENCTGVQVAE
- assay_name: PatchXpress whole-cell voltage clamp, inhibition of human Nav1.9 (+β1/β2) currents in HEK-293 cells
- Format: cell-based
- test_conditions: holding potential -100 mV; read-out: IC50 for inhibition of Nav1.9 at holding potential -100 mV
readout: pIC50
Numbers only, as −log10 of the molar value.

Input: Please tell me: pIC50 of CCCCNc1ccc(C(=O)OCCN(C)C)cc1 , system Human Nav1.9 (Homo sapiens)?
Output: 4.66

====

- tested_target: Human Nav1.7 (Homo sapiens, UniProt Q15858)
- Construct: expressed in transfected cells; host or cells: HEK-293-β1/β2
- Sequence (Q15858 1-1977 isoform Q15858-3): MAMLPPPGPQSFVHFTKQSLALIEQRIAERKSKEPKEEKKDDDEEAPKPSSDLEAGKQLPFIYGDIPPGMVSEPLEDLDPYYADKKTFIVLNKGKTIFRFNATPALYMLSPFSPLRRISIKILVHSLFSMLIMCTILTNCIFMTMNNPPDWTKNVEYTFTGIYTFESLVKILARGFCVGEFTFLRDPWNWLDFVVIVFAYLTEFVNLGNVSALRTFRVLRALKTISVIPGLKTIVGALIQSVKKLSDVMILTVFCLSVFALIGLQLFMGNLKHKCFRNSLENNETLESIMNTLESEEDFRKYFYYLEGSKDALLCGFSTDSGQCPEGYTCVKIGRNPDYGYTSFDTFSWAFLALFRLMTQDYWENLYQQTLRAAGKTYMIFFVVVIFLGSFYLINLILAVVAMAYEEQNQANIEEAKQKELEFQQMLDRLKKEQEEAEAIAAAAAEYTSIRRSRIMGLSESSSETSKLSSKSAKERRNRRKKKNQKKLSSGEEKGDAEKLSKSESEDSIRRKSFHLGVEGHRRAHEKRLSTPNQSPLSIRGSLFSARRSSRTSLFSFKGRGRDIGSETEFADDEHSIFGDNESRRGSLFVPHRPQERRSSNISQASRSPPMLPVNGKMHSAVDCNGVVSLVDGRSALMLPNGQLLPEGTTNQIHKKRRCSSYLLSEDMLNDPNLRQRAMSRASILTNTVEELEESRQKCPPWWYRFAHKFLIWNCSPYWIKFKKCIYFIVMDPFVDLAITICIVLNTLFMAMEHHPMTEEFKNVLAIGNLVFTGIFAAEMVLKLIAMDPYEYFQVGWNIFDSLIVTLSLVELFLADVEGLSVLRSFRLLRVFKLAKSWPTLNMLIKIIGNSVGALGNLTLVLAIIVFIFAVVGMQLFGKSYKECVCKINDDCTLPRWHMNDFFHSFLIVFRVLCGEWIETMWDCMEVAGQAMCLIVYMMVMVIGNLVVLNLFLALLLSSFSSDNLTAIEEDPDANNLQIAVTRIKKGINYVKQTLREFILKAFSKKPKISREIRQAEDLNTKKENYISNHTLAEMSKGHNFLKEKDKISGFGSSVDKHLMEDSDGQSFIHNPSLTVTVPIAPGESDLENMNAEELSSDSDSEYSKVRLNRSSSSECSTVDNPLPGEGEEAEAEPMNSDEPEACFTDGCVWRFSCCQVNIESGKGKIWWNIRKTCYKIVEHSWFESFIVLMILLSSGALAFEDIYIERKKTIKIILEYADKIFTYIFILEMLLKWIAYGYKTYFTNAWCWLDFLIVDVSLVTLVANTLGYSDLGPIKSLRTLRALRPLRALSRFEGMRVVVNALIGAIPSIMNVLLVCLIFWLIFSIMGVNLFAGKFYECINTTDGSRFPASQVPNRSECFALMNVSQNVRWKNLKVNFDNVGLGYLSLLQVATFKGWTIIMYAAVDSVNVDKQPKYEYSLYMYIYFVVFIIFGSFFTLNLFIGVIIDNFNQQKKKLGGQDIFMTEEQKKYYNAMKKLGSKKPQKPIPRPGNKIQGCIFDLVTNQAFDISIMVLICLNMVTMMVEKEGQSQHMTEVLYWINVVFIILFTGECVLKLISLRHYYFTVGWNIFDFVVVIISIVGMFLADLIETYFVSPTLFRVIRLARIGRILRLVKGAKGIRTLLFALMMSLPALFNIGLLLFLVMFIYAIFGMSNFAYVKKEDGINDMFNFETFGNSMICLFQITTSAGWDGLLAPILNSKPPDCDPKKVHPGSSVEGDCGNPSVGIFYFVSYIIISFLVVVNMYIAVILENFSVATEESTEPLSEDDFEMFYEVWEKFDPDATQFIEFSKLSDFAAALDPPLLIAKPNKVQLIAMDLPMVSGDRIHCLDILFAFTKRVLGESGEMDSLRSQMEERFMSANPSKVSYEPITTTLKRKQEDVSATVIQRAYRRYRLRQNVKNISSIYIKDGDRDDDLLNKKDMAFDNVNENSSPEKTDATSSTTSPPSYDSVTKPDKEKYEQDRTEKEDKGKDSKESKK
- Sequence (Q07699 19-218 partner): as the sequence (Q07699 19-218 partner) above
- Sequence (O60939 30-215 partner): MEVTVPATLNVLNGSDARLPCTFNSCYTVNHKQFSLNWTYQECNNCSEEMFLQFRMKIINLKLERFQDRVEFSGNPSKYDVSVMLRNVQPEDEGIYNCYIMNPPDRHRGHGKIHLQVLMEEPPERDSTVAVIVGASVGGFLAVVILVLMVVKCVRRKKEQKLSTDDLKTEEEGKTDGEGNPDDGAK
- assay_name: PatchXpress whole-cell voltage clamp, inhibition of human Nav1.7 in HEK-293 cells
- Type: cell-based
- test_conditions: in figure; read-out: IC50 for inhibition of Nav1.7 WT
readout: IC50 (µM)
One number for each entry, in µM.

Input: What value of IC50 has been recorded for this entry: CCOC(=O)c1ccc(N)cc1
Output: 130
